B1: tRNA (parent)
chain: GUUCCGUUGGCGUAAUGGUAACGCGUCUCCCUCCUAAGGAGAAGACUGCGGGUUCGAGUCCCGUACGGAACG

variants of: B1; assay: yeast fitness relative to wild type (ratio to wild type); higher = fitter; tRNA-Arg(CCU), competitive growth, 37 C, YPD
Variants at the floor of the assay were thinned out.
Reported yeast fitness by item:
MEASURE_NAME: yeast fitness

| MUTATION | OP | MEASURED_RESULT |
| --- | --- | --- |
| C4A U28A C62U C66A | ≤ | 0.5 |
| C31U A37U U54A | = | 0.514 |
| A20G U59A A70C | = | 0.646 |
| C29A A36U G50C C55G C61G | ≤ | 0.5 |
| U2G C46U | = | 1.01 |
| C11G C27A A36G G38A A65C | ≤ | 0.5 |
| G6A C22G G25A U47A A70C | ≤ | 0.5 |
| C24G C30U A43U | = | 0.549 |
| U2A A15G U16C A20C A21U U26C | = | 0.583 |
| C34G A36C C55G | ≤ | 0.5 |
| C5A U26G C60G C61U | ≤ | 0.5 |
| C27U C29A C49A | ≤ | 0.5 |
| U16A C60A C62U | = | 0.609 |
| G10C U26A C33U U53C A70C | = | 0.724 |
| U2G A45U G67C | ≤ | 0.5 |
| C22G C24G C27A C60G | = | 0.521 |
| U3G U26A | = | 0.944 |
| C27U C46U C61A | ≤ | 0.5 |
| A20G C29G | = | 0.609 |
| C11U G68A | = | 0.878 |
| U26G C62U | = | 0.842 |
| G17A U32C A40G | = | 0.573 |
